target: UniProt:P08183
Sequence (P08183 whole entry): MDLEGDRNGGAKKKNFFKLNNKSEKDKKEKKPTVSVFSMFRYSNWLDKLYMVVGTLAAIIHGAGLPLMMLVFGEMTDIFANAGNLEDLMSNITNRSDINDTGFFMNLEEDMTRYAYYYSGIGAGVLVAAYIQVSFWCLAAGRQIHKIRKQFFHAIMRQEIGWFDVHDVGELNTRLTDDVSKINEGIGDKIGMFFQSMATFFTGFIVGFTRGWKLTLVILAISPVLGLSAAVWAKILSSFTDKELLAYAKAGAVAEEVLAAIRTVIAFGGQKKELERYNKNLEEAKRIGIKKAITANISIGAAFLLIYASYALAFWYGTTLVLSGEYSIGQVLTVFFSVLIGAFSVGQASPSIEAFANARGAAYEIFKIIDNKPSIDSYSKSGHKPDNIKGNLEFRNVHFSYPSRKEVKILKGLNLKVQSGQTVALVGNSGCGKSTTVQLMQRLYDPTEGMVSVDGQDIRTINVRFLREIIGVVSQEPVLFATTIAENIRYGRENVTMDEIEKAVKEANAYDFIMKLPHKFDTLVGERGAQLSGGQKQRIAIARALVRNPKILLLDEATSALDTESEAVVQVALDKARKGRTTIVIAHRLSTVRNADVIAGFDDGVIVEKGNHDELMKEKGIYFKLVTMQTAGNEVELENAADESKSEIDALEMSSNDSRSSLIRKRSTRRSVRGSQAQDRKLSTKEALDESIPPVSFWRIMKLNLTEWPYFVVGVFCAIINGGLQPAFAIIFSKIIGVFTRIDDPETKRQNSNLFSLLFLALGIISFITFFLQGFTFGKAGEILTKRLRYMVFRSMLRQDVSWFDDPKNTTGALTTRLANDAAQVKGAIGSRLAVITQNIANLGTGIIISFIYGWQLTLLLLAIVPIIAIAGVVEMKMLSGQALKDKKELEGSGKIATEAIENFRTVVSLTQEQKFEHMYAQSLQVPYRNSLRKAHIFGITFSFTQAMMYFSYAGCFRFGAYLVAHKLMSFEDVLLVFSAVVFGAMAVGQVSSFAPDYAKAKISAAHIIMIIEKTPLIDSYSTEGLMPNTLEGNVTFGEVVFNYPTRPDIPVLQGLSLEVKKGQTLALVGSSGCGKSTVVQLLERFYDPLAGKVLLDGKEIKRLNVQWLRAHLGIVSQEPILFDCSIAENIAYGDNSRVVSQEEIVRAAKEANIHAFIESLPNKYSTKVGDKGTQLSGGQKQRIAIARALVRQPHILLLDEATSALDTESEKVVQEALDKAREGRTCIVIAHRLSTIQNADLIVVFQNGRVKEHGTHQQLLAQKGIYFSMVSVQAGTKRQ
Measurement Name: Ki

Recorded Ki for "Cn1c(=O)cnn(CCCCN2CCN(c3cccc4ccc(O[11CH3])cc34)CC2)c1=O" on UniProt:P08183 was > 10 µM

====

molecular target: Sodium-dependent dopamine transporter (Homo sapiens)
Sequence (Q01959 whole entry): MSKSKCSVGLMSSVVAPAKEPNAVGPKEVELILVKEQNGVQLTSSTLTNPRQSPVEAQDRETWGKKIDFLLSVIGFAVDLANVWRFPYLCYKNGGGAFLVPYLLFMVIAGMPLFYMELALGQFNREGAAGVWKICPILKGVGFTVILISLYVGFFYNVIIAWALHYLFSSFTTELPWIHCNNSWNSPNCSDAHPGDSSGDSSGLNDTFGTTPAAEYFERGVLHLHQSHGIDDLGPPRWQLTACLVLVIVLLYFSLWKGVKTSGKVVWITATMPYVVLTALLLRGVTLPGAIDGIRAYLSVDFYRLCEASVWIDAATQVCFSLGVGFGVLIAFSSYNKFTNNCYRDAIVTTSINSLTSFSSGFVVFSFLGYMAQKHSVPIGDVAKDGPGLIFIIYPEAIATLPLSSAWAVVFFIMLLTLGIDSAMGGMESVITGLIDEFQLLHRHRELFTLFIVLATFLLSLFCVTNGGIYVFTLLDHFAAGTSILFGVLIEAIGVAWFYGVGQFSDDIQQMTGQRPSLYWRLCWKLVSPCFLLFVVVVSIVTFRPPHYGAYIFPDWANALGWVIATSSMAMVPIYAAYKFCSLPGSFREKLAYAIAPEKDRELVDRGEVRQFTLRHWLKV
Measurement Name: Ki (nM)
Output spec: scalar in nM, unitless text.

"Cn1c(=O)cnn(CCCCN2CCN(c3cccc4ccc(O[11CH3])cc34)CC2)c1=O" on Sodium-dependent dopamine transporter (Homo sapiens) gives Ki = 407

====

molecular target: Sigma non-opioid intracellular receptor 1 (Homo sapiens, UniProt Q99720); experiment: Binding affinity to sigma1 receptor
Sequence (Q99720 whole entry): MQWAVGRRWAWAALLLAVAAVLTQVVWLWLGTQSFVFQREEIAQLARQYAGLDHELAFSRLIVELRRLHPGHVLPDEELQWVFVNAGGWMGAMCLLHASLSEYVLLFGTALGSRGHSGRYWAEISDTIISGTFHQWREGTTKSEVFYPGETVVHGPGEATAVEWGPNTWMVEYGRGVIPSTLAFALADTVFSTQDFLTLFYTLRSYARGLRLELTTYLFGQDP
Measurement Name: pKi
For clarity, pKi is expressed as the negative log10 of concentration in mol/L.

Per the record, "Cn1c(=O)cnn(CCCCN2CCN(c3cccc4ccc(O[11CH3])cc34)CC2)c1=O" has pKi of 6.32

====

assay: Binding affinity to NK receptor
Measurement Name: Ki

Value of measured Ki for the entry "Cn1c(=O)cnn(CCCCN2CCN(c3cccc4ccc(O[11CH3])cc34)CC2)c1=O" : > 10 µM

====

molecular target: Serotonin 3 (5-HT3) receptor; experiment: Binding affinity to human 5HT3 receptor
Measurement Name: Ki

Measured Ki of "Cn1c(=O)cnn(CCCCN2CCN(c3cccc4ccc(O[11CH3])cc34)CC2)c1=O" : > 10 µM

====

target: UniProtKB P35367
Measurement Name: Ki
Returns: string containing the number followed by the unit.

Entry "Cn1c(=O)cnn(CCCCN2CCN(c3cccc4ccc(O[11CH3])cc34)CC2)c1=O" — recorded Ki = 150 nM

====

target: UniProt:P29274
Sequence (P29274 whole entry): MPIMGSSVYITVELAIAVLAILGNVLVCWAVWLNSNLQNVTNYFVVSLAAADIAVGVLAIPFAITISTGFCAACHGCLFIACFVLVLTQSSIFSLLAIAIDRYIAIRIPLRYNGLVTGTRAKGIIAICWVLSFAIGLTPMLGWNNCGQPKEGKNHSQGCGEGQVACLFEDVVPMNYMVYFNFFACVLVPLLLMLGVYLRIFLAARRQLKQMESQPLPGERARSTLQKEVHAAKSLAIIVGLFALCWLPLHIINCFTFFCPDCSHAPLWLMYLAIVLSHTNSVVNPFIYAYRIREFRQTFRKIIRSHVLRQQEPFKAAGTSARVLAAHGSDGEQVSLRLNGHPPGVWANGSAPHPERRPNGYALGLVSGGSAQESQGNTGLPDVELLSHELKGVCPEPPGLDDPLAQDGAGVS
Measurement Name: Ki

Note to self: Ki of "Cn1c(=O)cnn(CCCCN2CCN(c3cccc4ccc(O[11CH3])cc34)CC2)c1=O" with UniProt:P29274 was > 10 µM

====

molecular target: Synaptic vesicular amine transporter (Homo sapiens)
Sequence (Q05940 whole entry): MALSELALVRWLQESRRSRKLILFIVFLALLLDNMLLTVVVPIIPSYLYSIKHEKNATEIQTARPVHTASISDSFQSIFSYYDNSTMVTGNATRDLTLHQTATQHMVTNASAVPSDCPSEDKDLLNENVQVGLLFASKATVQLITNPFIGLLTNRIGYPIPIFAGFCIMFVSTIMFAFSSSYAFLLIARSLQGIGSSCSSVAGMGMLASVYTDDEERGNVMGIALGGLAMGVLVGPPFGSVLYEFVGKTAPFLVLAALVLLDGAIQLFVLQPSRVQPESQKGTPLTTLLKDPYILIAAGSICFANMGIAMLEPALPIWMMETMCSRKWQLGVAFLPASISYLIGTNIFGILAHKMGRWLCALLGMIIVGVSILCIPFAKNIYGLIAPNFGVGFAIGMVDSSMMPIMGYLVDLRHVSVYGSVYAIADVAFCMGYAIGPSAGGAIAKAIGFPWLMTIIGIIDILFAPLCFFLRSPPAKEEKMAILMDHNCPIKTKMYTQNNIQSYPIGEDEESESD
pKi: −log10 of the molar value.
Measurement Name: pKi

The observed pKi for "Cn1c(=O)cnn(CCCCN2CCN(c3cccc4ccc(O[11CH3])cc34)CC2)c1=O" when tested with Synaptic vesicular amine transporter (Homo sapiens) stands at < 5.00

====

assay: Binding affinity to sodium channel
Measurement Name: Ki

// Ki value for "Cn1c(=O)cnn(CCCCN2CCN(c3cccc4ccc(O[11CH3])cc34)CC2)c1=O" : > 10 µM

====

target: Voltage-gated inwardly rectifying potassium channel KCNH2 (Homo sapiens)
pKi: −log10 of the molar value.
Measurement Name: pKi

Measured pKi of "Cn1c(=O)cnn(CCCCN2CCN(c3cccc4ccc(O[11CH3])cc34)CC2)c1=O" : < 5.00

====

biological target: 5-hydroxytryptamine receptor 2A (Homo sapiens, UniProt P28223)
Measurement Name: Ki (µM)
The reply should contain only the number, in µM.

Reported Ki of "Cn1c(=O)cnn(CCCCN2CCN(c3cccc4ccc(O[11CH3])cc34)CC2)c1=O" : 0.0415

====

biological target: UniProt:P50406
Measurement Name: pKi
Scale: pKi equals -log10([C]), with [C] in mol/L.

Record "Cn1c(=O)cnn(CCCCN2CCN(c3cccc4ccc(O[11CH3])cc34)CC2)c1=O" . Reported pKi: 6.92

====

target: UniProt:P08908
Sequence (P08908 whole entry): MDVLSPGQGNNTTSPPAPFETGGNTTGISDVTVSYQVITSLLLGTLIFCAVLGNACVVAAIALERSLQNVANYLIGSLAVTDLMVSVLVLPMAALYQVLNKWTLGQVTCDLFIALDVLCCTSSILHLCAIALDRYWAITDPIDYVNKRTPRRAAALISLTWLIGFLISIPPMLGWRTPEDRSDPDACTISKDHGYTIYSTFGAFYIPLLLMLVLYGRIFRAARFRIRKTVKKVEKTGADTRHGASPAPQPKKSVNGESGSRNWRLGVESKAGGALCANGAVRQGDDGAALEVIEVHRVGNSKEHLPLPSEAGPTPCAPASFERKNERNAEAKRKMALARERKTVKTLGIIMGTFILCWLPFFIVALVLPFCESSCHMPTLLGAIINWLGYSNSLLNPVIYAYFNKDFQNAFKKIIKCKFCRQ
Measurement Name: pKi
// pKi here means minus log10 of the molar concentration (mol/L)

Log: UniProt:P08908, compound "Cn1c(=O)cnn(CCCCN2CCN(c3cccc4ccc(O[11CH3])cc34)CC2)c1=O" , pKi = 8.87

====

biological target: D(2) dopamine receptor (Homo sapiens); test: Binding affinity to dopamine D2 receptor
Sequence (P14416 whole entry): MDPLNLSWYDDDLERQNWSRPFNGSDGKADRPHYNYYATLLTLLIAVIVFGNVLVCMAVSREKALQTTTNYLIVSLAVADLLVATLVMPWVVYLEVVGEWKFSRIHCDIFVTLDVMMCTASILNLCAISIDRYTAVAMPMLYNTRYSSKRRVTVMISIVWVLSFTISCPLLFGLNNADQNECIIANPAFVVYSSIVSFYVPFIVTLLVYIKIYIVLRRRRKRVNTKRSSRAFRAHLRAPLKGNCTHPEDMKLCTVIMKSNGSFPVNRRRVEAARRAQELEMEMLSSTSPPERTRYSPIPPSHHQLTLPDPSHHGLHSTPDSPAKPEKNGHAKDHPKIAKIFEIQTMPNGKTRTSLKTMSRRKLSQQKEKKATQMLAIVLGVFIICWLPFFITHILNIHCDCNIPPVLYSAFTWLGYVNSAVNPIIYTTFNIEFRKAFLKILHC
Measurement Name: pKi
Units for pKi: none; it is -log10 of a concentration expressed in mol/L.

Reported pKi ( "Cn1c(=O)cnn(CCCCN2CCN(c3cccc4ccc(O[11CH3])cc34)CC2)c1=O" ) = 7.66

====

biological target: 5-hydroxytryptamine receptor 5A (Homo sapiens, UniProt P47898)
Sequence (P47898 whole entry): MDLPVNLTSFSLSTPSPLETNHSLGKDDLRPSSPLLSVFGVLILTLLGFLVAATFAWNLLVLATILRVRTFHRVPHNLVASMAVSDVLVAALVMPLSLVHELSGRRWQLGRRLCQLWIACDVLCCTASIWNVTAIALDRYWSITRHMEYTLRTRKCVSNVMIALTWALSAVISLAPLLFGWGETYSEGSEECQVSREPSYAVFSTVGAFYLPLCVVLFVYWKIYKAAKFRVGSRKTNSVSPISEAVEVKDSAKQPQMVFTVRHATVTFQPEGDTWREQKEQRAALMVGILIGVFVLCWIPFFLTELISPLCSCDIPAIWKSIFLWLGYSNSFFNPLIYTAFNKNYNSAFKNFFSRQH
Measurement Name: Ki
Just so you know, I need the unit written after the number.

Item: "Cn1c(=O)cnn(CCCCN2CCN(c3cccc4ccc(O[11CH3])cc34)CC2)c1=O" | System: 5-hydroxytryptamine receptor 5A (Homo sapiens, UniProt P47898) | Ki: 0.229 µM

====

target: Glutamate [NMDA] receptor; assay: Binding affinity to NMDA receptor
Measurement Name: Ki

In plain terms, "Cn1c(=O)cnn(CCCCN2CCN(c3cccc4ccc(O[11CH3])cc34)CC2)c1=O" has a documented Ki of > 10 µM

====

target: Glutamate receptor ionotropic AMPA (Homo sapiens, UniProt P42261+P42262+P42263+P48058); assay: Binding affinity to AMPA receptor
Measurement Name: Ki

Please fill in: Ki reported for "Cn1c(=O)cnn(CCCCN2CCN(c3cccc4ccc(O[11CH3])cc34)CC2)c1=O" = > 10 µM

====

target: UniProt:P08588
Measurement Name: pKi
FYI, pKi means -log10 of a concentration in mol per litre.

Fill in: UniProt:P08588 pKi for "Cn1c(=O)cnn(CCCCN2CCN(c3cccc4ccc(O[11CH3])cc34)CC2)c1=O" = 6.32

====

Protein target, amino acids: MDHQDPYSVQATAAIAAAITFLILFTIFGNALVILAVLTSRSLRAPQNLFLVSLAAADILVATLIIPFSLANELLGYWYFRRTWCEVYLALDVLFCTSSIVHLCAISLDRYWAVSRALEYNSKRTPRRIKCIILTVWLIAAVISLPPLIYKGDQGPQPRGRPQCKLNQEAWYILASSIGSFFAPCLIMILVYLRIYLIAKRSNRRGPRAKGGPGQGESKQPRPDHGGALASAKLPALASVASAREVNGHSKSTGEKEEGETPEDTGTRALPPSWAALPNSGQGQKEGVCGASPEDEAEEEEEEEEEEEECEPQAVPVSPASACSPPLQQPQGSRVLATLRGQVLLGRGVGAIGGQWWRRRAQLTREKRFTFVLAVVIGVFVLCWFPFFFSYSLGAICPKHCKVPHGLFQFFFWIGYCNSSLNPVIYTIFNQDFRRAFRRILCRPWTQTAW
Measurement Name: Ki (nM)
Write down the numeric answer in nM and omit the unit.

The reported Ki of the compound "Cn1c(=O)cnn(CCCCN2CCN(c3cccc4ccc(O[11CH3])cc34)CC2)c1=O" was 316

====

target: Sodium-dependent noradrenaline transporter (Homo sapiens)
Sequence (P23975 whole entry): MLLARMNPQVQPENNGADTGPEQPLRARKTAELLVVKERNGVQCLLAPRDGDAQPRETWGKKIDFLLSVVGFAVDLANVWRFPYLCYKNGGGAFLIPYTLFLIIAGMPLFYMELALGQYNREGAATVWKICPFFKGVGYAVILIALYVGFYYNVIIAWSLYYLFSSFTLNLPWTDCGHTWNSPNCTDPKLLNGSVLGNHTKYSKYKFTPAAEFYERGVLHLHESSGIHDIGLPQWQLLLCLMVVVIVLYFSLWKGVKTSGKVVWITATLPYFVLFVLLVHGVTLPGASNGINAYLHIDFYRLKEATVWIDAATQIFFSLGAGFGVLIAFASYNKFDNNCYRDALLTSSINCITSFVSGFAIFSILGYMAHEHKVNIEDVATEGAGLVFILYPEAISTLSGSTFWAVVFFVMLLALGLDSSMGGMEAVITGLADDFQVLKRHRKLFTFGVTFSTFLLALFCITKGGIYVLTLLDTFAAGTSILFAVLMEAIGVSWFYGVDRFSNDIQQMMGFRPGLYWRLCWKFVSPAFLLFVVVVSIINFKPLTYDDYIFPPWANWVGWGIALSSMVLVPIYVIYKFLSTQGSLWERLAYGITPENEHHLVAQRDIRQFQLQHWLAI
Measurement Name: Ki (µM)
Answer format: numeric, µM implied, no suffix.

// compound "Cn1c(=O)cnn(CCCCN2CCN(c3cccc4ccc(O[11CH3])cc34)CC2)c1=O" , assay Sodium-dependent noradrenaline transporter (Homo sapiens), Ki value: 6.98

====

Biological target: D(4) dopamine receptor (Homo sapiens)
Sequence (P21917 whole entry): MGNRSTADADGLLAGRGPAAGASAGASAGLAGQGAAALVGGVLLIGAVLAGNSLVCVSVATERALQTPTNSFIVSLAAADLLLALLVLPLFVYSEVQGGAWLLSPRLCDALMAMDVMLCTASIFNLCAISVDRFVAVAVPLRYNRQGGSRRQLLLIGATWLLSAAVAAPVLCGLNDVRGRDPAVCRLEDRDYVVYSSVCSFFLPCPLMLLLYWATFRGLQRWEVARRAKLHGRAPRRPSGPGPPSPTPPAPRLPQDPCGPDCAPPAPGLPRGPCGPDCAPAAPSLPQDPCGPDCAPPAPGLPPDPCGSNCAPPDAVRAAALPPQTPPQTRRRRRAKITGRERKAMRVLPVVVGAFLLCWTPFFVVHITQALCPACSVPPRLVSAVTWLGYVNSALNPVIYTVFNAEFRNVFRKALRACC
Measurement Name: Ki
Include the unit right after the number.

The recorded Ki for entry "Cn1c(=O)cnn(CCCCN2CCN(c3cccc4ccc(O[11CH3])cc34)CC2)c1=O" equals 8.5 nM

====

Biological target: UniProtKB P08138
Sequence (P08138 whole entry): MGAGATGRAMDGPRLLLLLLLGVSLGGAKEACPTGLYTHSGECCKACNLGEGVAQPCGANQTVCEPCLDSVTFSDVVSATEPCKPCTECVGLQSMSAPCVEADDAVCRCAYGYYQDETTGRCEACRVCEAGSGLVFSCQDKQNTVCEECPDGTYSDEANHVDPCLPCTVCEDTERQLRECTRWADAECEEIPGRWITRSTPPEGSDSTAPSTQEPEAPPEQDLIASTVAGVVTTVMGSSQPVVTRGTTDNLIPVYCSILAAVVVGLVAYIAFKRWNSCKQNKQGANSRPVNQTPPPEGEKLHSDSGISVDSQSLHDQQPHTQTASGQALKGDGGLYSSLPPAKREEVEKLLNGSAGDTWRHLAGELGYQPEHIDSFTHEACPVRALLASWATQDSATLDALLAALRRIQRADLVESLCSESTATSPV
Test: Binding affinity to neurotrophin receptor
pKi: −log10 of the molar value.
Measurement Name: pKi

So, "Cn1c(=O)cnn(CCCCN2CCN(c3cccc4ccc(O[11CH3])cc34)CC2)c1=O" ? Its pKi was < 5.00

====

experiment: Binding affinity to prostanoid receptor
Measurement Name: Ki

Measured Ki of "Cn1c(=O)cnn(CCCCN2CCN(c3cccc4ccc(O[11CH3])cc34)CC2)c1=O" : > 10 µM
